Read-out record for Neuropeptide Y receptor type 2 (Homo sapiens, UniProt P49146): IC50

Enquiry: Suppose we examine the compound CC(C)n1c2c(c3cc(NC(=O)N(C)CCc4ccncc4)ccc31)CCCC2 ; what IC50 value has been reported?
Return: > 10 µM

---
Enquiry: For CC1(C)CC(=O)C(C2C3=C(CC(C)(C)CC3=O)Oc3ccccc32)C(=O)C1 (configuration not stated) , what is its reported IC50?
Return: > 10 µM

====

Target: Neuropeptide Y receptor type 5 (Homo sapiens, UniProt Q15761)
Sequence (Q15761 whole entry): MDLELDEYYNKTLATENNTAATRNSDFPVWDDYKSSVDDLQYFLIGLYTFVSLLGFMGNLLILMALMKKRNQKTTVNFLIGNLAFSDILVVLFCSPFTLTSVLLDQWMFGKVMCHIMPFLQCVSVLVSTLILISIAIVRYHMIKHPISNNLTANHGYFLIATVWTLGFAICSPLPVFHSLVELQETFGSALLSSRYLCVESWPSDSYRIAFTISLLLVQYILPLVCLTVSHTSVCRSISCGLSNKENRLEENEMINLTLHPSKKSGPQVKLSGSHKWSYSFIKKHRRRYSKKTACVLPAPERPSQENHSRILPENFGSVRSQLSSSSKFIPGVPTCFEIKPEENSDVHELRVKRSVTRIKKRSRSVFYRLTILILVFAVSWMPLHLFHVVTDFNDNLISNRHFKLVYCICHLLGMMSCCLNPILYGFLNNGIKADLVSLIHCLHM
Quantity: pIC50
Numbers only, as −log10 of the molar value.

Enquiry: Reported pIC50 for Neuropeptide Y receptor type 5 (Homo sapiens, UniProt Q15761), given CC(C)n1c2c(c3cc(NC(=O)N(C)CCc4ccncc4)ccc31)CCCC2 ?
Return: 8.37
